Target: Muscarinic acetylcholine receptor M2 (Homo sapiens, UniProt P08172)
Sequence (P08172 whole entry): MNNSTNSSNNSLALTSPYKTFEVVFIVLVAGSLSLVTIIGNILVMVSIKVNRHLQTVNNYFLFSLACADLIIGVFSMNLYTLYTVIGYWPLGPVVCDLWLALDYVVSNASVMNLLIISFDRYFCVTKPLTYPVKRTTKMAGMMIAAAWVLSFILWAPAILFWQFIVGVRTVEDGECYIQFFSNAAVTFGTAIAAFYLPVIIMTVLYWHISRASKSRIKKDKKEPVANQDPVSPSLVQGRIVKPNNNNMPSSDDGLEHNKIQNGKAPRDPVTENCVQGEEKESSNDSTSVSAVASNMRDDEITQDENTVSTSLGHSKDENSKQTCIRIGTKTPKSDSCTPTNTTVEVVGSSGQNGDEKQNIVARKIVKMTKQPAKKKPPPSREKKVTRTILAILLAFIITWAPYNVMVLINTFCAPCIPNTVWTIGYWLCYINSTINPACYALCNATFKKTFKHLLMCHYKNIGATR
Type: cell membranes, CHO-K1, Membrane
Conditions: read-out: Ki
observed-property: Ki (nM)
Give bare numbers, in nM.

## Input // lookup Ki | system=Muscarinic acetylcholine receptor M2 (Homo sapiens, UniProt P08172) | key= CC[C@]1(O)CC[C@H]2[C@@H]3CCC4=CCCC[C@@H]4[C@H]3CC[C@@]21C
## Output 104
